# Tested on: Saccharomyces cerevisiae BY4741 SeMeCo community
# METHOD SUMMARY: z-score of subpopulation abundance vs DMSO median, subpopulation auxotrophic for HUM; higher = larger share of this subpopulation than in DMSO controls
# PROTOCOL CONDITIONS: 10 µM; 24 h; SM minimal medium; subpopulation (auxotrophy): HUM
Structures can show the parent of a compound that is named as a salt.
As shown below, each of these compounds has a reported z-score of subpopulation abundance value.
Give the figure by itself; no unit, no explanation.

Observed z-score of subpopulation abundance, Saccharomyces cerevisiae BY4741 SeMeCo community, Nc1nc(/C(=C/CC(=O)O)C(=O)N[C@@H]2C(=O)N3C(C(=O)O)=CCS[C@H]23)cs1 [Ceftibuten dihydrate] : -1.27

Observed z-score of subpopulation abundance, Saccharomyces cerevisiae BY4741 SeMeCo community, COC(=O)Nc1nc2cc(C(=O)c3ccccc3)ccc2[nH]1 : 1.64

Observed z-score of subpopulation abundance, Saccharomyces cerevisiae BY4741 SeMeCo community, CCOC(=O)C1=C[C@]2(CC)CCCN3CCc4c(n1c1ccccc41)[C@@H]32 : 0.65

Observed z-score of subpopulation abundance, Saccharomyces cerevisiae BY4741 SeMeCo community, CC#C[C@]1(O)CC[C@H]2[C@@H]3CCC4=CC(=O)CCC4=C3[C@@H](c3ccc(N(C)C)cc3)C[C@@]21C : 1.71

Observed z-score of subpopulation abundance, Saccharomyces cerevisiae BY4741 SeMeCo community, O=C(c1ccccc1)c1ccc2n1CCC2C(=O)O (stereo not drawn) [Ketorolac tromethamine salt] : -0.75
